Data origin: PubChem BioAssay (NCATS)

# Assay Details: Identifying Small Molecule Inhibitors of Pancreatic Cancer Stem Cells (A278, Adherent) (AID 1259361);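 further: viability read after 48 h compound exposure; nearly all actives have a fitted effect of over 35% in size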
# Condition Description: series mostly up to 46.1 µM
Records with an inconclusive call do not appear. Active and inactive are the calls of the source. The call rests on the fitted dose curve; in most records, active means well fitted cell-killing curve with a large enough effect; inconclusive means small, poorly fitted or top-dose-only effect; inactive means flat fitted curve, though single readings scatter.
Below, each of the molecules is paired with its reported IC50 (viability decrease) value.

Any idea what IC50 (viability decrease) was measured for "Cc1nc2cnc3ccc(C#Cc4cccnc4)cc3c2n1-c1ccc(C(C)(C)C#N)cc1" ?
187 nM (active)

Quick check: IC50 (viability decrease) of "CC(C)c1ccc(Cn2ccc3c4c(N)nc(NC5CC5)nc4ccc32)cc1" ?
332 nM (active)

Give the measured IC50 (viability decrease) of "Cc1ccc(C(N)=O)cc1Nc1nccc(-c2cn(C(C)C)c3cnccc23)n1" .
8330 nM (active)

Returns the measured IC50 (viability decrease) for the input molecule. Input: "COCCn1c2c([n+](Cc3cnccn3)c1C)C(=O)c1ccccc1C2=O"
6.6 nM (active)

Requested field: IC50 (viability decrease). Item: "CCOc1cc2ncc(C#N)c(Nc3ccc(F)c(Cl)c3)c2cc1NC(=O)C=CCN(C)C"
20900 nM (active)
